Measured collision cross section, listed per entry for reference.
# method-notes: collision cross section of modified peptide (TIMS, N2, iRT-aligned); higher = larger / more extended gas-phase ion
# conditions-used: charge state: 3; modification: Glutarylation
± gives the standard deviation.
metric: collision cross section

>>> result("SGNLTEDDKHNNAK [_SGNLTEDDK(Gluratylation)HNNAK_]")
"486.64 ± 2.8 Å²"
>>> result("KYEEIDNAPEER [_K(Gluratylation)YEEIDNAPEER_]")
"495.54 ± 1 Å²"
>>> result("ATVASSTQKFQDLGVK [_ATVASSTQK(Gluratylation)FQDLGVK_]")
"497.84 ± 1.7 Å²"
>>> result("LQEKVESAQSEQK [_LQEK(Gluratylation)VESAQSEQK_]")
"507.02 ± 1 Å²"
>>> result("LLFSNTAAQKLR [_LLFSNTAAQK(Gluratylation)LR_]")
"487.13 ± 1.7 Å²"
>>> result("PANEKATDDYHYEK [_PANEK(Gluratylation)ATDDYHYEK_]")
"511.51 ± 1 Å²"
>>> result("PSVGSQSNQAGQGKR [_PSVGSQSNQAGQGK(Gluratylation)R_]")
"479.06 ± 9.1 Å²"
>>> result("TQAYQDQKPGTSGLR [_TQAYQDQK(Gluratylation)PGTSGLR_]")
"483.65 ± 1 Å²"
>>> result("VYIASSSGSTAIKK [_VYIASSSGSTAIK(Gluratylation)K_]")
"512.2 ± 1 Å²"
>>> result("ALASIDSKLNQAK [_ALASIDSK(Gluratylation)LNQAK_]")
"470.57 Å²"
>>> result("DDSFLGKLGGTLAR [_DDSFLGK(Gluratylation)LGGTLAR_]")
"485.15 Å²"
>>> result("TLDEILQEKK [_TLDEILQEK(Gluratylation)K_]")
"452.89 ± 2.4 Å²"
>>> result("DVNAAIAAIKTK [_DVNAAIAAIK(Gluratylation)TK_]")
"471.67 ± 2.5 Å²"
>>> result("YEQEHAAIQDKLFQVAK [_YEQEHAAIQDK(Gluratylation)LFQVAK_]")
"519.4 ± 1.2 Å²"
>>> result("GADFLVTEVENGGSLGSKK [_GADFLVTEVENGGSLGSK(Gluratylation)K_]")
"556.42 Å²"
>>> result("SLFFGGKGAPLQR [_SLFFGGK(Gluratylation)GAPLQR_]")
"479.63 ± 1.2 Å²"
>>> result("SPDEAYAIAKK [_SPDEAYAIAK(Gluratylation)K_]")
"455.46 ± 1.2 Å²"
>>> result("GETASKLQSEISR [_GETASK(Gluratylation)LQSEISR_]")
"470.57 Å²"
>>> result("DHLSDKESK [_DHLSDK(Gluratylation)ESK_]")
"411.89 Å²"
>>> result("IISSIEQKEENK [_IISSIEQK(Gluratylation)EENK_]")
"467.18 ± 1.7 Å²"
>>> result("SSGPGGQNVNKVNSK [_SSGPGGQNVNK(Gluratylation)VNSK_]")
"446.64 ± 1.9 Å²"
>>> result("VDVEVPDVSLEGPEGKLK [_VDVEVPDVSLEGPEGK(Gluratylation)LK_]")
"502.24 Å²"
>>> result("DTPTSAGPNSFNKGK [_DTPTSAGPNSFNK(Gluratylation)GK_]")
"444.87 ± 1.9 Å²"
>>> result("DSINFLDHINGKK [_DSINFLDHINGK(Gluratylation)K_]")
"460.36 ± 1.7 Å²"
>>> result("VFIGNLNTLVVKKK [_VFIGNLNTLVVK(Gluratylation)KK_]")
"521.05 ± 1.8 Å²"
>>> result("IQQELQTAKK [_IQQELQTAK(Gluratylation)K_]")
"444.75 Å²"
>>> result("LQAAYAGDKADDIQK [_LQAAYAGDK(Gluratylation)ADDIQK_]")
"496.91 ± 1 Å²"
>>> result("LQDVSGQLSSSKK [_LQDVSGQLSSSK(Gluratylation)K_]")
"482.96 ± 1.3 Å²"
>>> result("VSPASSVDSNIPSSQGYKK [_VSPASSVDSNIPSSQGYK(Gluratylation)K_]")
"552.93 ± 0.14 Å²"
>>> result("LEEVTGKLQVAR [_LEEVTGK(Gluratylation)LQVAR_]")
"468.97 Å²"
>>> result("GTVPDDAVEALADSLGKK [_GTVPDDAVEALADSLGK(Gluratylation)K_]")
"538.57 ± 1.8 Å²"
